# key: entry, value: chromatographic logD
# Procedure Details: CHI Log D procedure
# Assay type: physicochemical
# Measurement Context: pH 7.4, CHI Log D
Property Measured: chromatographic logD

# Molecule, Test Result
data = [
    ("CC(=O)N1CCC[C@]12CC=CCCCC1(CCCC=CCCCOC(=O)N3CC[C@@](C(=O)N[C@@H](Cc4ccsc4)C(=O)N[C@@H](Cc4csc5ccccc45)C(=O)N[C@@H](CCC(N)=O)C(N)=O)(C3)NC(=O)[C@H](Cc3ccccc3)NC(=O)[C@H](Cc3ccccc3)NC(=O)[C@H](C)NC(=O)[C@H](C)NC(=O)[C@H](CN(CC(=O)O)CC(F)(F)F)NC(=O)[C@H](CC(=O)O)NC1=O)NC(=O)[C@H](CC(C)(C)C)NC(=O)[C@H](CC(=O)O)NC2=O (stereo partly drawn) [I-848]", 2.46),
    ("CC(=O)N1CCC[C@]12CC=CCCCC1(CCCC=CCCCOC(=O)N3CC[C@@](C(=O)N[C@@H](Cc4ccsc4)C(=O)N[C@@H](Cc4csc5ccccc45)C(N)=O)(C3)NC(=O)[C@H](CC(N)=O)NC(=O)[C@H](Cc3ccccc3)NC(=O)[C@H](C)NC(=O)[C@H](C)NC(=O)[C@H](CCC(N)=O)NC(=O)[C@H](CC(=O)O)NC1=O)NC(=O)[C@H](CC(C)(C)C)NC(=O)[C@H](CC(=O)O)NC2=O (stereo partly drawn) [I-858]", 2.54),
    ("CC(=O)N1CCC[C@]12CC=CCCCC1(CCCC=CCCCOC(=O)N3CC[C@@](C(=O)N[C@@H](Cc4ccccc4Cl)C(=O)N[C@@H](Cc4csc5ccccc45)C(=O)N[C@@H](C(N)=O)[C@H](C)O)(C3)NC(=O)[C@H](Cc3ccccc3)NC(=O)[C@H](Cc3ccccc3)NC(=O)[C@H](C)NC(=O)[C@H](C)NC(=O)[C@H](CC(=O)O)NC(=O)[C@H](CC(=O)O)NC1=O)NC(=O)[C@H](CC(C)(C)C)NC(=O)[C@H](CC(=O)O)NC2=O (stereo partly drawn) [I-1034]", 2.71),
]
